B1: OR4K15 (parent)
chain: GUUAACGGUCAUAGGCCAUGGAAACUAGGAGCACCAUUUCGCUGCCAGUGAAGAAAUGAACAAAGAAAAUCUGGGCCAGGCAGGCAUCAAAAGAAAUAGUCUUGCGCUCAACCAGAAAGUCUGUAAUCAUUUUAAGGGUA

Variants of: B1
Experiment: self-cleavage, relative activity (ratio to wild type); higher = more cleavage; in vitro, sequencing; the parent is a self-cleaving ribozyme
Note to self: values exactly at 1 are met. So self-cleavage at or above 1 is met, below is not met.

Reference set, count: 5
| VARIANT_DESCRIPTOR | ASSIGNED_CATEGORY |
| --- | --- |
| A64U A135G | met |
| A94G U127A | met |
| A51G U103C | met |
| A27G U49A | not met |
| A95C U124C | not met |

Is reported self-cleavage greater than or equal to 1 here: A47U A90G
not met

Is reported self-cleavage greater than or equal to 1 here: U72A U102C
not met

Is reported self-cleavage greater than or equal to 1 here: A82U U97C
not met

Is reported self-cleavage greater than or equal to 1 here: A18G A51G
met

Is reported self-cleavage greater than or equal to 1 here: U37C A62G
met

Is reported self-cleavage greater than or equal to 1 here: A24G A92G
met

Is reported self-cleavage greater than or equal to 1 here: U49C A134U
met

Is reported self-cleavage greater than or equal to 1 here: A69U A95G
met
